Origin of the recorded values: ChEMBL document CHEMBL1139510

systemTested: Albumin (Homo sapiens)
Sequence (P02768 whole entry): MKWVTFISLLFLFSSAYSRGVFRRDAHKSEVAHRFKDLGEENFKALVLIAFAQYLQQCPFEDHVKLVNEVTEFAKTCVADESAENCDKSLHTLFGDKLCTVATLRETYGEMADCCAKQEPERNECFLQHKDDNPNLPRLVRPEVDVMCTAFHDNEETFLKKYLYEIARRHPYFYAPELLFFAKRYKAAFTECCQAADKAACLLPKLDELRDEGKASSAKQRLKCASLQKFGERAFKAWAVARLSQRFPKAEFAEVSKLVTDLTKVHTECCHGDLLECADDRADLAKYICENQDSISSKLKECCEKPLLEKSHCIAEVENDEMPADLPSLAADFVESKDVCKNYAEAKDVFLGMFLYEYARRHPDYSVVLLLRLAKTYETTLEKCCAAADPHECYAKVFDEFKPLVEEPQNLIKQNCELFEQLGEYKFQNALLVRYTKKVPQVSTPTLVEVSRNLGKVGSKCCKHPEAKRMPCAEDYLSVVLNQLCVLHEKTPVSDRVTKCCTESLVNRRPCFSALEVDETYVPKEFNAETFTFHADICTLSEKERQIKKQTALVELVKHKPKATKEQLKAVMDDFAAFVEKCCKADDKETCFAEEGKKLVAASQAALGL
protocolDescription: Dissociation rate constant for the interaction between the compound and serum albumin
Assay type: ADME
recordedMetric: Koff1 (s⁻¹)

[[record]]
molecule = "Cc1cccc(C)c1OCC(=O)N[C@@H](Cc1ccccc1)[C@@H](O)C[C@H](Cc1ccccc1)NC(=O)[C@H](C(C)C)N1CCCNC1=O [LOPINAVIR]"
val = 0.619

[[record]]
molecule = "Cc1c(O)cccc1C(=O)N[C@@H](CSc1ccccc1)[C@H](O)CN1C[C@H]2CCCC[C@H]2C[C@H]1C(=O)NC(C)(C)C"
val = 0.413

[[record]]
molecule = "CC(=O)O[C@H]1C(=O)[C@@]2(C)C([C@H](OC(=O)c3ccccc3)[C@]3(O)C[C@H](OC(=O)[C@H](O)[C@@H](NC(=O)c4ccccc4)c4ccccc4)C(C)=C1C3(C)C)[C@]1(OC(C)=O)CO[C@@H]1C[C@@H]2OC(=O)CCC(=O)O (stereo partly specified)"
val = 1.183


[I] CC(C)(C)NC(=O)[C@@H]1C[C@@H]2CCCC[C@@H]2CN1C[C@@H](O)[C@H](Cc1ccccc1)NC(=O)[C@H](CC(N)=O)NC(=O)c1ccc2ccccc2n1
[II] COC(=O)N[C@H](C(=O)N[C@@H](Cc1ccccc1)[C@@H](O)CN(Cc1ccc(-c2ccccn2)cc1)NC(=O)[C@@H](NC(=O)OC)C(C)(C)C)C(C)(C)C [ATAZANAVIR]
[III] CC(C)CN(C[C@@H](O)[C@H](Cc1ccccc1)NC(=O)O[C@H]1CCOC1)S(=O)(=O)c1ccc(N)cc1
Input: Arrange these 3 molecules in increasing order of Koff1. To answer, write out the labels according to the requested order.
Output: I, II, III
(I: 0.856 s⁻¹, II: 1.43 s⁻¹, III: 2.75 s⁻¹)
